measured.on: CREBBP (1084-1701) (Homo sapiens, UniProt Q92793)
Construct: measured in the following biochemical assay using CREBBP (1084-1701); purchased
Sequence (Q92793 1084-1701): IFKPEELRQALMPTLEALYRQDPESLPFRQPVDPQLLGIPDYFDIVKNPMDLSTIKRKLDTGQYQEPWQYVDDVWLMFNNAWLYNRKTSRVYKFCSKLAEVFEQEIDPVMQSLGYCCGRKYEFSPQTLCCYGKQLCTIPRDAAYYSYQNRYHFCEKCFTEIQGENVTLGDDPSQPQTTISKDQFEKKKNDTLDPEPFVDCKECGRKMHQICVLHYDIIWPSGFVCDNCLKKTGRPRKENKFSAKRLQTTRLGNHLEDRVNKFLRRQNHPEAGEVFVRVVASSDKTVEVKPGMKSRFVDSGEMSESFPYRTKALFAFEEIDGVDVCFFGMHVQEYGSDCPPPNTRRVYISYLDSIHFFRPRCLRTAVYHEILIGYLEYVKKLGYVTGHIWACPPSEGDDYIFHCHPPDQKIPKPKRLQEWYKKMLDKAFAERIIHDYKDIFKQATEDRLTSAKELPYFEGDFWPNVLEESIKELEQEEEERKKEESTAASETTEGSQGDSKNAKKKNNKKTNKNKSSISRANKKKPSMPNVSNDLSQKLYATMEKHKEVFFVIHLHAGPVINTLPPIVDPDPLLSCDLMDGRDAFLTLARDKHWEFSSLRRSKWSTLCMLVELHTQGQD
method.summary: Biochemical assay for CREBBP (1084-1701), SAMDI
condition.parameters: SAMDI, read-out: CREBBP Biochemistry IC50
quantity: IC50 (µM)

CCn1ncc(CN(C)C(=O)c2nc(-c3cnnc(N)c3)nc3ccc(Cl)cc23)c1C = 3.51
CCc1ncc(CN(C)C(=O)c2nc(-c3cccc(Cl)c3Cl)nc3ccc(Cl)cc23)n1C = 0.0032
CCn1ncc(CN(C)C(=O)c2cc(-c3cn[nH]c3N)nc3ccc(Cl)cc23)c1C = 50
CCn1ncc(CN(C)C(=O)c2nc(-c3cccc(Cl)c3)nc3ccc(C)cc23)c1C = 0.014
CCn1ncc(CN(C)C(=O)c2nc(-c3ccc(C(=O)NC)c(C)c3)nc3ccc(Cl)cc23)c1C = 52
CCn1ncc(CN(C)C(=O)c2nc(-c3ccc(OCCCNC)c(C)c3)nc3ccc(Cl)cc23)c1C [Compound 36] = 0.052
CCn1ncc(CN(C)C(=O)c2cc(-c3cn(CCNC)cn3)nc3ccc(Cl)cc23)c1C = 0.82
CCn1ncc(CN(C)C(=O)c2nc(-c3cc4c(NC)[nH]nc4cc3C)nc3ccc(C)cc23)c1C = 0.018

----------
# reported IC50; entries follow
measured.on: EP300 (P300(1048-1664)) (Homo sapiens)
Construct: P300(1048-1664)
Sequence (Q09472 1048-1664): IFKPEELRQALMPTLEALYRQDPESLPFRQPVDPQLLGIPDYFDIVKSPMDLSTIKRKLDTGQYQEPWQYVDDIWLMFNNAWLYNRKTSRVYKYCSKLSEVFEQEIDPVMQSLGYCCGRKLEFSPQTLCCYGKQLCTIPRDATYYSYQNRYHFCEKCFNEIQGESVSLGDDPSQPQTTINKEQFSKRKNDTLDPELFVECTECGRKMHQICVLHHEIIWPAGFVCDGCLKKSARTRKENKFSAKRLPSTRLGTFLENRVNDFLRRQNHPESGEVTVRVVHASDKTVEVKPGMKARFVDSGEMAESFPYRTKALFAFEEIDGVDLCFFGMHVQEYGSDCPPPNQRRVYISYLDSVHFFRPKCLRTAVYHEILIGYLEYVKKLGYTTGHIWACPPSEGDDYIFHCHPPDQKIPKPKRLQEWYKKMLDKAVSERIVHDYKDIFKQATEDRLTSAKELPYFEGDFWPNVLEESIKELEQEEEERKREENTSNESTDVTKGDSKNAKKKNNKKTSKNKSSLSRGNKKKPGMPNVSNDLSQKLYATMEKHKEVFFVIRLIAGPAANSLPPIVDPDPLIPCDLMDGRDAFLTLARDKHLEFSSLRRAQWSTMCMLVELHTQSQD
method.summary: Biochemical assay for EP300, SAMDI
condition.parameters: EP300, SAMDI; read-out: EP300 Biochemistry IC50
quantity: IC50

CCn1ncc(CN(C)C(=O)c2nc(-c3cc(C)cc(NC4CNC4)c3)nc3ccc(Cl)cc23)c1C [Compound 444] = 4.1 nM
CCn1ncc(CN(C)C(=O)c2nc(-c3cc(C(=O)NC)on3)nc3ccc(Cl)cc23)c1C [Compound 215] = 41000 nM
CCn1ncc(CN(C)C(=O)c2nc(-c3ccc(OCCNC(=O)OC(C)(C)C)c(Cl)c3)nc3ccc(Cl)cc23)c1C [Compound 117] = 4300 nM
CCn1ncc(CN(C)C(=O)c2nc(-n3cc(CCN(C)C)cn3)nc3ccc(Cl)cc23)c1C [Compound 405] = 2700 nM
CNCCNc1ccc(-c2cc(C(=O)N(C)Cc3onc(C4CC4)c3C)c3cc(Cl)ccc3n2)nc1C [Compound 599] = 1750 nM
CCn1ncc(CN(C)C(=O)c2nc(-c3ccc(OCCCNC)c(C)c3C)nc3ccc(Cl)cc23)c1C [Compound 446] = 13.2 nM
CCn1ncc(CN(C)C(=O)c2nc(-c3cc4c(N)noc4cc3C)nc3ccc(Cl)cc23)c1C [Compound 466] = 71.5 nM

----------
measured.on: CREBBP (1084-1701) (Homo sapiens)
Construct: measured in the following biochemical assay using CREBBP (1084-1701); purchased
method.summary: Biochemical assay for CREBBP (1084-1701), SAMDI
condition.parameters: SAMDI, read-out: CREBBP Biochemistry IC50
pIC50: −log10 of the molar value.
# reported pIC50; entries follow
quantity: pIC50

CN(Cc1cc2n(n1)CCC2)C(=O)c1cc(-c2cccc(Cl)c2)nc2ccc(Cl)cc12 [Compound 271] = 4.85
CCn1ncc(CN(C)C(=O)c2nc(-c3ccccc3Cl)nc3cc(C)c(Cl)cc23)c1C [Compound 359] = 6.40
CCn1ncc(CN(C)C(=O)c2nc(-c3ccc(-c4ccn[nH]4)cc3)nc3ccc(Cl)cc23)c1C [Compound 171] = 5.07
CCn1ncc(CN(C)C(=O)c2nc(-c3cc(C(=O)NC)n(C)n3)nc3ccc(Cl)cc23)c1C [Compound 18] = 7.64
CCn1ncc(CN(C)C(=O)c2cc(-c3ccc(OCCNC)c(Cl)c3)nc3ccc(P(C)(C)=O)cc23)c1C [Compound 407] = 5.68
CCn1ncc(CN(C)C(=O)c2nc(-c3cccc(F)c3)nc3ccc(Cl)cc23)c1C [Compound 316] = 6.46
CCn1ncc(CN(C)C(=O)c2cc(-c3cccc(Cl)c3)nc3ccc(C)cc23)c1C [Compound 126] = 6.01
CCn1ncc(CN(C)C(=O)c2cc(-c3cccc(Cl)c3)nc3ccc(N)cc23)c1C [Compound 311] = 4.74
